# pIC50 values compiled below
procedure summary: Inhibition of rat intestinal alpha-glucosidase using p-nitrophenyl-alpha-D-glucopyranoside as substrate preincubated for 5 mins followed by substrate addition and measured after 5 mins by spectrophotometric analysis
pIC50: −log10 of the molar value.

>  <compound>
C(=N\n1cnnc1)/c1cc2ccc3cccc4ccc(c1)c2c34

>  <pIC50>
5.20

$$$$
>  <compound>
O=[N+]([O-])c1cccc(/C=N/n2cnnc2)c1

>  <pIC50>
5.27

$$$$
>  <compound>
CCOc1cc(/C=N/n2cnnc2)ccc1OC

>  <pIC50>
5.26

$$$$
>  <compound>
Nc1ncccc1/C=N/n1cnnc1

>  <pIC50>
5.61

$$$$
>  <compound>
O=[N+]([O-])c1ccc(/C=N/n2cnnc2)cc1

>  <pIC50>
5.61

$$$$
>  <compound>
Oc1ccc(O)c(/C=N/n2cnnc2)c1

>  <pIC50>
5.27

$$$$
>  <compound>
Oc1ccc(/C=N/n2cnnc2)cc1Br

>  <pIC50>
5.63

$$$$
>  <compound>
C[C@H]1O[C@H](O[C@H]2[C@H](O)[C@@H](O)[C@@H](O[C@H]3[C@H](O)[C@@H](O)C(O)O[C@@H]3CO)O[C@@H]2CO)[C@H](O)[C@@H](O)[C@@H]1N[C@H]1C=C(CO)[C@@H](O)[C@H](O)[C@H]1O (some centres not stated) [ACARBOSE]

>  <pIC50>
5.70

$$$$
>  <compound>
O=[N+]([O-])c1ccc(Cl)c(/C=N/n2cnnc2)c1

>  <pIC50>
5.36

$$$$
>  <compound>
Oc1ccc(/C=N/n2cnnc2)c(O)c1

>  <pIC50>
5.26

$$$$
>  <compound>
C(=N\n1cnnc1)/c1ccc(OCc2ccccc2)cc1

>  <pIC50>
5.26

$$$$
>  <compound>
Clc1ccc(/C=N/n2cnnc2)c(Cl)c1

>  <pIC50>
5.60

$$$$

###

tgt: Alpha amylase (Homo sapiens, UniProt P0DUB6)
Sequence (P0DUB6 whole entry): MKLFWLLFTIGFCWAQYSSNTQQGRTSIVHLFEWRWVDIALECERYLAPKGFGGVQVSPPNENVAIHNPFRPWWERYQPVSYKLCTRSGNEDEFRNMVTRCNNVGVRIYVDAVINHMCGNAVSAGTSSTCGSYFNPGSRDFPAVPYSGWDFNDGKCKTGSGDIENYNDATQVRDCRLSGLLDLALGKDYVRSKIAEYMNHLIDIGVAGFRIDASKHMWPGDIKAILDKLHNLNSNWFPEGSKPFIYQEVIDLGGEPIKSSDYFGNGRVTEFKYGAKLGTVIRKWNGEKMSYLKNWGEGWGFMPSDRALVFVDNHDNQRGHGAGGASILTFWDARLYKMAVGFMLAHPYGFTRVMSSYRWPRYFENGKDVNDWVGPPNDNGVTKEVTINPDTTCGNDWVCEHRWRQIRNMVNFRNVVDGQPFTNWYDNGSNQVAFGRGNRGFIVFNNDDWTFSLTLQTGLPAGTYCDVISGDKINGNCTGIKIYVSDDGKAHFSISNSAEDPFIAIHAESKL
procedure summary: Inhibition of alpha-amylase (unknown origin) using starch as substrate preincubated for 10 mins followed by substrate addition and measured after 10 mins by dinitrosalicylic acid reagent based assay
observable: IC50 (µM)

>  <structure smiles>
COc1cc(/C=N/n2cnnc2)cc(OC)c1OC

>  <tgt>
Alpha amylase (Homo sapiens, UniProt P0DUB6)

>  <observable>
IC50

>  <data value>
5.12

$$$$
>  <structure smiles>
Oc1ccc(/C=N/n2cnnc2)cc1Br

>  <tgt>
Alpha amylase (Homo sapiens, UniProt P0DUB6)

>  <observable>
IC50

>  <data value>
2.27

$$$$
>  <structure smiles>
COc1ccc(Br)c(/C=N/n2cnnc2)c1O

>  <tgt>
Alpha amylase (Homo sapiens, UniProt P0DUB6)

>  <observable>
IC50

>  <data value>
5.25

$$$$
>  <structure smiles>
O=[N+]([O-])c1ccc(/C=N/n2cnnc2)cc1

>  <tgt>
Alpha amylase (Homo sapiens, UniProt P0DUB6)

>  <observable>
IC50

>  <data value>
2.36

$$$$
>  <structure smiles>
CC(C)(C)c1ccc(/C=N/n2cnnc2)cc1

>  <tgt>
Alpha amylase (Homo sapiens, UniProt P0DUB6)

>  <observable>
IC50

>  <data value>
6.44

$$$$
>  <structure smiles>
CC(C)(C)c1cc(/C=N/n2cnnc2)c(C(C)(C)C)cc1O

>  <tgt>
Alpha amylase (Homo sapiens, UniProt P0DUB6)

>  <observable>
IC50

>  <data value>
6.23

$$$$
>  <structure smiles>
COc1ccc(Br)cc1/C=N/n1cnnc1

>  <tgt>
Alpha amylase (Homo sapiens, UniProt P0DUB6)

>  <observable>
IC50

>  <data value>
3.3

$$$$
>  <structure smiles>
O=[N+]([O-])c1cccc(/C=N/n2cnnc2)c1

>  <tgt>
Alpha amylase (Homo sapiens, UniProt P0DUB6)

>  <observable>
IC50

>  <data value>
5.97

$$$$
>  <structure smiles>
Oc1ccc(/C=N/n2cnnc2)c(O)c1O

>  <tgt>
Alpha amylase (Homo sapiens, UniProt P0DUB6)

>  <observable>
IC50

>  <data value>
5.92

$$$$
>  <structure smiles>
COc1cccc(OC)c1/C=N/n1cnnc1

>  <tgt>
Alpha amylase (Homo sapiens, UniProt P0DUB6)

>  <observable>
IC50

>  <data value>
4.37

$$$$
>  <structure smiles>
Oc1ccc(O)c(/C=N/n2cnnc2)c1

>  <tgt>
Alpha amylase (Homo sapiens, UniProt P0DUB6)

>  <observable>
IC50

>  <data value>
5.27

$$$$
>  <structure smiles>
C(=N\n1cnnc1)/c1ccc(OCc2ccccc2)cc1

>  <tgt>
Alpha amylase (Homo sapiens, UniProt P0DUB6)

>  <observable>
IC50

>  <data value>
5.04

$$$$
>  <structure smiles>
Oc1ccc(/C=N/n2cnnc2)cc1

>  <tgt>
Alpha amylase (Homo sapiens, UniProt P0DUB6)

>  <observable>
IC50

>  <data value>
2.99

$$$$
>  <structure smiles>
COc1ccc(/C=N/n2cnnc2)c(OC)c1

>  <tgt>
Alpha amylase (Homo sapiens, UniProt P0DUB6)

>  <observable>
IC50

>  <data value>
4.37

$$$$
>  <structure smiles>
Clc1ccc(/C=N/n2cnnc2)c(Cl)c1

>  <tgt>
Alpha amylase (Homo sapiens, UniProt P0DUB6)

>  <observable>
IC50

>  <data value>
2.18

$$$$
>  <structure smiles>
Oc1ccc(/C=N/n2cnnc2)c(O)c1

>  <tgt>
Alpha amylase (Homo sapiens, UniProt P0DUB6)

>  <observable>
IC50

>  <data value>
5.95

$$$$
>  <structure smiles>
O=[N+]([O-])c1cc(O)cc(/C=N/n2cnnc2)c1

>  <tgt>
Alpha amylase (Homo sapiens, UniProt P0DUB6)

>  <observable>
IC50

>  <data value>
2.41

$$$$
>  <structure smiles>
COc1cc(/C=N/n2cnnc2)ccc1O

>  <tgt>
Alpha amylase (Homo sapiens, UniProt P0DUB6)

>  <observable>
IC50

>  <data value>
5.94

$$$$
>  <structure smiles>
COc1cc(/C=N/n2cnnc2)cc(OC)c1Br

>  <tgt>
Alpha amylase (Homo sapiens, UniProt P0DUB6)

>  <observable>
IC50

>  <data value>
2.25

$$$$

###

procedure summary: Inhibition of rat intestinal alpha-glucosidase using p-nitrophenyl-alpha-D-glucopyranoside as substrate preincubated for 5 mins followed by substrate addition and measured after 5 mins by spectrophotometric analysis

>  <structure smiles>
COc1cc(/C=N/n2cnnc2)cc(OC)c1O

>  <measurement unit>
µM

>  <IC50>
3.27

$$$$
>  <structure smiles>
C(=N\n1cnnc1)/c1c2ccccc2cc2ccccc12

>  <measurement unit>
µM

>  <IC50>
5.41

$$$$
>  <structure smiles>
Oc1ccc(/C=N/n2cnnc2)c(O)c1O

>  <measurement unit>
µM

>  <IC50>
5.74

$$$$
>  <structure smiles>
CC(C)(C)c1ccc(/C=N/n2cnnc2)cc1

>  <measurement unit>
µM

>  <IC50>
6.37

$$$$
>  <structure smiles>
COc1ccc(/C=N/n2cnnc2)c(F)c1

>  <measurement unit>
µM

>  <IC50>
2.33

$$$$
>  <structure smiles>
Clc1ccc(/C=N/n2cnnc2)cc1

>  <measurement unit>
µM

>  <IC50>
4.28

$$$$
>  <structure smiles>
COc1ccc(Br)c(/C=N/n2cnnc2)c1O

>  <measurement unit>
µM

>  <IC50>
5.52

$$$$
>  <structure smiles>
O=[N+]([O-])c1cc(O)cc(/C=N/n2cnnc2)c1

>  <measurement unit>
µM

>  <IC50>
2.31

$$$$
>  <structure smiles>
COc1cccc(OC)c1/C=N/n1cnnc1

>  <measurement unit>
µM

>  <IC50>
4.29

$$$$
>  <structure smiles>
Oc1ccc(/C=N/n2cnnc2)cc1O

>  <measurement unit>
µM

>  <IC50>
5.44

$$$$
>  <structure smiles>
COc1cc(/C=N/n2cnnc2)ccc1F

>  <measurement unit>
µM

>  <IC50>
2.27

$$$$
>  <structure smiles>
COc1ccc(/C=N/n2cnnc2)cc1OCc1ccccc1

>  <measurement unit>
µM

>  <IC50>
6.54

$$$$
>  <structure smiles>
COc1cc(/C=N/n2cnnc2)cc(OC)c1Br

>  <measurement unit>
µM

>  <IC50>
2.52

$$$$
